# System: Escherichia coli
# METHOD_DESCRIPTION: Antibacterial activity against Escherichia coli assessed as growth inhibition after 24 hr by two-fold serial dilution method
# Type: functional
# TEST_CONTEXT: Escherichia coli, 24 h
Label 1 when MIC < 4 µg/mL; otherwise 0.

Request: Please determine if Cc1cc(Cl)c(-n2c(=O)c3ccccc3c3ccccc3c2=O)c(Cl)c1 is below 4 µg/mL in terms of MIC.
Result: 1

Request: Next record, please: O=C1c2nccnc2C(=O)N1c1c(Cl)cc(Cl)cc1Cl
Result: 0

Request: Also O=C1c2cccc3cccc(c23)C(=O)N1CCN1CCOCC1 , if possible.
Result: 0

Request: How about O=C1c2nccnc2C(=O)N1CCN1CCOCC1 ?
Result: 0

Request: Consider next the compound O=C(O)c1ccc(N2C(=O)c3nccnc3C2=O)cc1 in the same way.
Result: 0

Request: Next: CC1(C)S[C@@H]2[C@H](NC(=O)[C@H](N)c3ccccc3)C(=O)N2[C@H]1C(=O)O
Result: 1

Request: Another compound: O=C1c2nccnc2C(=O)N1CCc1ccccn1
Result: 0

Request: Repeat for the following compound: COc1cc(OC)c(N2C(=O)c3cccc4cccc(c34)C2=O)c(OC)c1
Result: 1

Request: Same for COc1cc(N2C(=O)c3nccnc3C2=O)cc(OC)c1OC
Result: 0

Request: What about O=c1c2ccccc2c2ccccc2c(=O)n1-c1c(Cl)cc(Cl)cc1Cl ?
Result: 1

Request: Entry to check: O=c1c2ccccc2c2ccccc2c(=O)n1CCN1CCOCC1
Result: 0

Request: Now consider COc1cc(OC)c(-n2c(=O)c3ccccc3c3ccccc3c2=O)c(OC)c1 .
Result: 1

Request: What do you have for COc1cc(N2C(=O)c3cccc4cccc(c34)C2=O)cc(OC)c1OC ?
Result: 1

Request: Same read-out for Cc1cc(Cl)c(N2C(=O)c3nccnc3C2=O)c(Cl)c1 ?
Result: 0

Request: // repeat for O=C(O)c1ccc(-n2c(=O)c3ccccc3c3ccccc3c2=O)cc1 and report
Result: 0

Request: Next compound up: O=C1c2nccnc2C(=O)N1c1ccc([N+](=O)[O-])cc1
Result: 0

Request: Same thing, different compound: O=C1c2nccnc2C(=O)N1c1ccc([N+](=O)[O-])cc1[N+](=O)[O-]
Result: 0

Request: Same for COc1cc(-n2c(=O)c3ccccc3c3ccccc3c2=O)cc(OC)c1OC
Result: 1

====

Kindly state -logMIC for each of the entries shown.
# Test system: Escherichia coli
# METHOD_DESCRIPTION: Antibacterial activity against Escherichia coli assessed as growth inhibition after 24 hr by two-fold serial dilution method
# Assay type: functional
Answer field: number only, no words.

Request: Using the record for O=c1c2ccccc2c2ccccc2c(=O)n1CCc1ccccn1 , report its -logMIC.
Result: 3.53

Request: Now this one: O=C1c2nccnc2C(=O)N1CCN1CCOCC1
Result: 3.42

Request: Try COc1cc(N2C(=O)c3nccnc3C2=O)cc(OC)c1OC next.
Result: 4.54

Request: And the next one, O=C1c2nccnc2C(=O)N1c1ccc([N+](=O)[O-])cc1[N+](=O)[O-] ?
Result: 4.46

====

Give measured MIC for each item. Keep answers brief.
# Test system: Escherichia coli
# METHOD_DESCRIPTION: Antibacterial activity against Escherichia coli assessed as growth inhibition after 24 hr by two-fold serial dilution method
# Assay type: functional
# TEST_CONTEXT: Escherichia coli, 24 h

Request: If you can, please state the reported MIC value of O=C1c2cccc3cccc(c23)C(=O)N1CCc1ccccn1 .
Result: > 100 µg/mL

Request: Now consider O=C1c2cccc3cccc(c23)C(=O)N1c1c(Cl)cc(Cl)cc1Cl and answer again.
Result: 2 µg/mL

Request: And what about the compound COc1cc(OC)c(N2C(=O)c3nccnc3C2=O)c(OC)c1 ?
Result: 9 µg/mL

Request: Same question for O=c1c2ccccc2c2ccccc2c(=O)n1CCc1ccccn1 please.
Result: > 100 µg/mL

Request: Can you check Cc1cc(Cl)c(N2C(=O)c3cccc4cccc(c34)C2=O)c(Cl)c1 next?
Result: 2.2 µg/mL

====

# Test system: Escherichia coli
# METHOD_DESCRIPTION: Antibacterial activity against Escherichia coli assessed as growth inhibition after 24 hr by two-fold serial dilution method
# Format: functional
MEASURE_NAME: -logMIC
# output: bare number, no unit

Request: What value of -logMIC has been reported for the following compound? COc1cc(OC)c(N2C(=O)c3nccnc3C2=O)c(OC)c1
Result: 4.54

Request: Queued: O=C(O)c1ccc(N2C(=O)c3nccnc3C2=O)cc1
Result: 4.39

Request: What about Cc1cc(Cl)c(N2C(=O)c3nccnc3C2=O)c(Cl)c1 ?
Result: 4.65

Request: What about this compound? O=C(O)c1ccc(N2C(=O)c3cccc4cccc(c34)C2=O)cc1
Result: 4.91

Request: Next compound up: O=C1c2nccnc2C(=O)N1c1c(Cl)cc(Cl)cc1Cl
Result: 4.68

Request: Queued: COc1cc(OC)c(N2C(=O)c3cccc4cccc(c34)C2=O)c(OC)c1
Result: 5.16

Request: Further, for O=C1c2cccc3cccc(c23)C(=O)N1CCN1CCOCC1 ?
Result: 3.49

Request: How about COc1cc(N2C(=O)c3cccc4cccc(c34)C2=O)cc(OC)c1OC ?
Result: 5.16

Request: Try the compound O=C1c2cccc3cccc(c23)C(=O)N1c1c(Cl)cc(Cl)cc1Cl
Result: 5.27

Request: Check O=C1c2cccc3cccc(c23)C(=O)N1c1ccc([N+](=O)[O-])cc1 too.
Result: 4.9

Request: And O=c1c2ccccc2c2ccccc2c(=O)n1-c1c(Cl)cc(Cl)cc1Cl ?
Result: 5.22

Request: Next up: Cc1cc(Cl)c(-n2c(=O)c3ccccc3c3ccccc3c2=O)c(Cl)c1
Result: 5.17

Request: Moving on to O=c1c2ccccc2c2ccccc2c(=O)n1-c1ccc([N+](=O)[O-])cc1[N+](=O)[O-]
Result: 4.99

Request: Now consider O=c1c2ccccc2c2ccccc2c(=O)n1CCN1CCOCC1 .
Result: 3.52

Request: Now consider O=C1c2cccc3cccc(c23)C(=O)N1CCc1ccccn1 and answer again.
Result: 3.48

Request: And what about the compound O=C1c2nccnc2C(=O)N1CCc1ccccn1 ?
Result: 3.41

Request: Now try O=C1c2nccnc2C(=O)N1c1ccc([N+](=O)[O-])cc1 .
Result: 4.41

Request: Quick one: Cc1cc(Cl)c(N2C(=O)c3cccc4cccc(c34)C2=O)c(Cl)c1
Result: 5.21

Request: Moving on to COc1cc(OC)c(-n2c(=O)c3ccccc3c3ccccc3c2=O)c(OC)c1
Result: 5.19

Request: Continue with COc1cc(-n2c(=O)c3ccccc3c3ccccc3c2=O)cc(OC)c1OC
Result: 5.19

Request: Please do the same for O=C1c2cccc3cccc(c23)C(=O)N1c1ccc([N+](=O)[O-])cc1[N+](=O)[O-] as well.
Result: 4.96

Request: Same question, O=C(O)c1ccc(-n2c(=O)c3ccccc3c3ccccc3c2=O)cc1 this time
Result: 4.91

====

# Test system: HOP-92
# METHOD_DESCRIPTION: Growth inhibition of Homo sapiens (human) HOP92 cells at 10 uM after 48 hr by coulter counter analysis
# Format: functional
# TEST_CONTEXT: HOP-92, 48 h, read-out: GI
Classify as follows. Reported inhibition of growth at 10 µM greater than or equal to 10%: 1.0. Reported inhibition of growth at 10 µM below: 0.0.

Request: Exam item: decide whether the reported inhibition of growth at 10 µM for Cc1cc(Cl)c(N2C(=O)c3cccc4cccc(c34)C2=O)c(Cl)c1 is at least 10%.
Result: 0.0

Request: Would you kindly repeat that for O=C1c2nccnc2C(=O)N1CCc1ccccn1 ?
Result: 0.0

Request: Again, but for O=c1c2ccccc2c2ccccc2c(=O)n1-c1c(Cl)cc(Cl)cc1Cl
Result: 1.0

Request: Next up: O=c1c2ccccc2c2ccccc2c(=O)n1CCc1ccccn1
Result: 1.0

Request: Same again, this time with O=C1c2nccnc2C(=O)N1c1c(Cl)cc(Cl)cc1Cl
Result: 1.0

====

What inhibition of growth at 10 µM was measured for each of the following?
# System: HOP-92
# METHOD_DESCRIPTION: Growth inhibition of Homo sapiens (human) HOP92 cells at 10 uM after 48 hr by coulter counter analysis
# Assay type: functional
# TEST_CONTEXT: HOP-92, 48 h, read-out: GI
// units = %; emit number, no label

Request: What measured inhibition of growth at 10 µM goes with O=c1c2ccccc2c2ccccc2c(=O)n1-c1ccc([N+](=O)[O-])cc1[N+](=O)[O-] ?
Result: 26.4

Request: What do you have for COc1cc(OC)c(N2C(=O)c3cccc4cccc(c34)C2=O)c(OC)c1 ?
Result: 30.2

Request: And COc1cc(N2C(=O)c3nccnc3C2=O)cc(OC)c1OC ?
Result: 10.2

Request: Next compound: Cc1cc(Cl)c(-n2c(=O)c3ccccc3c3ccccc3c2=O)c(Cl)c1
Result: 1.58

Request: Item: O=C1c2nccnc2C(=O)N1c1ccc([N+](=O)[O-])cc1[N+](=O)[O-]
Result: -28.1
